Below, each entry is listed alongside its reported TGI.
- Test system: MDA-MB-435
- assay-details: NCI tumour cell line growth inhibition, 48 h

Asked: In one line, give reported TGI of the entry CCCc1c(O)c2ccccc2[nH]c1=O .
Given back: > 100 µM

Asked: State its TGI: CC(Cc1ccc(O)cn1)(NC(=O)c1ccccc1)C(=O)O (stereo unspecified)
Given back: > 100 µM

Asked: In one line, give reported TGI of the entry COc1cc2cc(Oc3ccc(NC(=O)Nc4ccc(F)c(C(F)(F)F)c4)cc3)c(C)nc2cc1OCCN1CCOCC1 .
Given back: 3.9 µM

Asked: // fetch TGI given entry C=CC(Br)(CBr)CCC1OC1(C)C (stereo unspecified)
Given back: 31.3 µM

Asked: Please indicate TGI recorded for CC(=O)OCc1cc(OC(C)=O)c2cc3c(OC(C)=O)cccc3c(OC(C)=O)c2c1
Given back: 43.9 µM

Asked: Give a short answer stating reported TGI for COC(=O)Nc1nc2ccc(C(=O)C3CC3)cc2[nH]1 .
Given back: 0.324 µM

Asked: Answer with reported TGI of N#Cc1nc(N)c(C#N)[nH]1
Given back: > 100 µM

Asked: Give TGI for CCOC(=O)Cc1csc(Nc2nc(O)c(C3=c4ccccc4=NC3=O)s2)n1
Given back: > 100 µM

Asked: Please give measured TGI of the following entry: Fc1ccc(-c2nn3c(COc4ccccc4Cl)nnc3s2)cc1Oc1ccccc1
Given back: > 100 µM

Asked: Consider the compound N[C@@H]1c2c(Br)sc(Br)c2C(=O)[C@H]1Br and give its recorded TGI.
Given back: > 61 µM

Asked: // fetch TGI given entry CC1(C)OP(=O)(c2ccccc2)C=C1Br (stereo unspecified)
Given back: > 100 µM

* * *

- Tested on: SK-MEL-28 melanoma
- assay-details: NCI tumour cell line growth inhibition, 48 h; in the data active means GI50 below about 0.43 µM; inactive means the rest
Would you mind answering with one of these outcomes? 1 (active), -1 (inactive)

[[record]]
item_smiles = "CCOC(=O)Nc1ccc2c3c(cccc13)-c1ccccc1-2"
label = -1

[[record]]
item_smiles = "CC(=O)N[C@@H](Cc1ccc(OP(=O)(O)O)cc1)C(=O)N[C@H]1CCC(=O)N2CCC[C@@H](C(=O)NCc3cccc4ccccc34)N2C1=O"
label = -1

[[record]]
item_smiles = "COc1c(O)cc2c(c1CC=C(C)C)OC(=O)c1c(cc(O)c(CC=C(C)C)c1O)O2"
label = -1

[[record]]
item_smiles = "O=C1/C(=C\\c2ccc(Cl)cc2)CN(C(=O)c2ccccc2)C/C1=C\\c1ccc(Cl)cc1"
label = -1

[[record]]
item_smiles = "Clc1ccc(Nc2ncnc3ccccc23)cc1"
label = -1

[[record]]
item_smiles = "N#C/C(=C\\c1ccc([N+](=O)[O-])cc1)n1nnc2cc(F)c(F)cc21"
label = -1

[[record]]
item_smiles = "Fc1cc(C2=Nn3c(nnc3-c3cc(F)c(Cl)cc3Cl)SC2)c(Cl)cc1Cl"
label = -1

[[record]]
item_smiles = "CC(C)[C@]12O[C@H]1[C@@H]1O[C@]13[C@]1(O[C@H]1C[C@H]1C4=C(CC[C@@]13C)C(=O)OC4)[C@@H]2OC(=O)OC(C)(C)C"
label = 1


Now consider the entry below.
Asked: Any idea what this test logged for O=C(/C=C/c1cccnc1)c1ccccc1 ?
Given back: -1

* * *

The following compounds are shown together with reported TGI values.
- Test system: HOP-92 NSCLC
- assay-details: NCI tumour cell line growth inhibition, 48 h

[[record]]
compound = "O=C(NC(=S)Nc1ccc(-c2nc3ccccc3[nH]2)cc1)c1ccc2ccccc2c1"
assay_target = "HOP-92 NSCLC"
observed_result = "7.02 µM"

[[record]]
compound = "O=c1[nH]ncc2[nH]c(-c3ccccc3)cc12"
assay_target = "HOP-92 NSCLC"
observed_result = "> 100 µM"

[[record]]
compound = "Cc1nn(C(=O)c2ccc(Cl)cc2)c2c1C(c1ccccc1)SC(N)=N2 (configuration not stated)"
assay_target = "HOP-92 NSCLC"
observed_result = "> 10 µM"


Asked: Report value only: TGI, HOP-92 NSCLC, c1ccc2c(CNCCCN3CCN(CCCNCc4cccc5ccccc45)CC3)cccc2c1
Given back: 4.65 µM

Asked: Give the observed TGI of O=C(CC(O)(C(F)(F)Cl)C(F)(F)Cl)CC(O)(C(F)(F)Cl)C(F)(F)Cl for HOP-92 NSCLC.
Given back: 3.04 µM

Asked: Give TGI for this entry on HOP-92 NSCLC: Clc1ccc(-c2cn3c(nc4ccccc43)c(/C=C/c3cccs3)n2)cc1
Given back: > 100 µM

Asked: Specify TGI for Cc1ccc(C2=NN=C3C(c4ccccc4)=Nc4ccccc4N3C2)cc1 , system HOP-92 NSCLC.
Given back: > 72.9 µM

* * *

The compounds listed here are annotated with their TGI.
- Test system: UACC-257 melanoma
- assay-details: NCI tumour cell line growth inhibition, 48 h

The cases that follow already have their TGI on record.
[[record]]
compound = "Cc1ccc(OC2CC(n3cnc4c(=O)[nH]c(Br)nc43)OC2Oc2ccc(C)cc2)cc1 (stereo unspecified)"
assay_target = "UACC-257 melanoma"
measurement_label = "TGI"
observed_result = "62.2 µM"

[[record]]
compound = "Cc1cc(S(=O)(=O)Nc2n[nH]c(-c3ccc(Cl)cc3)c2C#N)c(S)cc1Cl"
assay_target = "UACC-257 melanoma"
measurement_label = "TGI"
observed_result = "> 100 µM"

[[record]]
compound = "O=C(OC1C#CCSCC#C/C=C\\1)c1cnc2ccccc2n1 (stereo unspecified)"
assay_target = "UACC-257 melanoma"
measurement_label = "TGI"
observed_result = "> 100 µM"

[[record]]
compound = "CCOC(=O)Nc1nc(-c2ccccc2)c(C)s1"
assay_target = "UACC-257 melanoma"
measurement_label = "TGI"
observed_result = "> 100 µM"

[[record]]
compound = "Cc1cc2c(=O)c3ccc(Cl)cc3[nH]c2c(C(=O)O)c1C"
assay_target = "UACC-257 melanoma"
measurement_label = "TGI"
observed_result = "> 100 µM"

[[record]]
compound = "CNC(=O)Nn1c(SC)nc2ccccc21"
assay_target = "UACC-257 melanoma"
measurement_label = "TGI"
observed_result = "> 100 µM"

[[record]]
compound = "CCCC(c1cc(C(C)(C)C)c(O)cc1C)c1cc(C(C)(C)C)c(O)cc1C"
assay_target = "UACC-257 melanoma"
measurement_label = "TGI"
observed_result = "5.69 µM"

[[record]]
compound = "CCOC(=O)c1sc(Nc2cc(Cl)ccc2Cl)nc1C"
assay_target = "UACC-257 melanoma"
measurement_label = "TGI"
observed_result = "> 100 µM"


Asked: Report TGI from UACC-257 melanoma testing of Cc1cc(N(C)C)ccc1N=Nc1ccc2ncccc2c1
Given back: > 100 µM

Asked: // output TGI; input CCOC(=O)c1cc2c(OC)cc(OC)cc2oc1=O ; system UACC-257 melanoma
Given back: > 100 µM

Asked: Specify TGI for Cc1cc2c(=O)cc(-c3ccc(Cl)c(Cl)c3)oc2c(C(=O)O)c1C , system UACC-257 melanoma.
Given back: > 100 µM

Asked: Enter recorded TGI with UACC-257 melanoma for CNC(=O)N(CCCC(NC(C)=O)C(=O)NCc1ccccc1)Cc1ccccc1 (stereo unspecified) here.
Given back: > 100 µM

Asked: # return TGI for O=C(CSc1nc2ccc([N+](=O)[O-])cc2[nH]1)Nc1ccc([N+](=O)[O-])cc1 , test system: UACC-257 melanoma
Given back: 6.71 µM

Asked: For UACC-257 melanoma, give the measured TGI of the entry CC1(C)CCCC2(C)[C@@H]1CC[C@]13C[C@](C)(CC[C@@H]21)[C@@H]3CO (stereo partly specified)
Given back: > 100 µM

Asked: Please look at CCN1CCC(O)(/C=C/c2cccc(C)c2)C(C(=O)/C=C/c2cccc(C)c2)C1 (stereo unspecified) and tell me its recorded TGI on UACC-257 melanoma.
Given back: 7.31 µM

Asked: // output TGI; input Cc1ccc([I+]c2ccc(C)cc2)cc1 ; system UACC-257 melanoma
Given back: 57.4 µM

Asked: Please respond with reported TGI (system UACC-257 melanoma) for CC(=O)OC1C(COC(N)=O)OC(n2c(-c3ccc(C)cc3)cc(-c3ccccc3)c(C#N)c2=O)C(OC(C)=O)C1OC(C)=O (stereo unspecified) .
Given back: > 100 µM

Asked: With UACC-257 melanoma as the test system, provide measured TGI for this compound: N#CCC(=O)N/N=C(/C(=O)Nc1ccccc1)C1C(=O)N(c2ccccc2)N=C1N (stereo unspecified)
Given back: > 100 µM

Asked: Report its TGI with UACC-257 melanoma as the test system: c1ccc2c(CNCCCN3CCN(CCCNCc4cccc5ccccc45)CC3)cccc2c1
Given back: 3.34 µM

Asked: Name the recorded TGI of CCOC(=O)c1c2c(n(Cc3ccccc3)c1C)-c1nc[nH]c1C(=O)C2=O , assay system UACC-257 melanoma.
Given back: 30 µM

Asked: Write down measured TGI (UACC-257 melanoma) for this compound. CC(C)[C@]12O[C@H]1[C@@H]1O[C@]13[C@]1(O[C@H]1C[C@H]1C4=C(CC[C@@]13C)C(=O)OC4)[C@@H]2OC(=O)OC(C)(C)C
Given back: 0.0544 µM

Recorded values, source PubChem BioAssay (NCI).
